B1: ZNF649 (parent)
chain: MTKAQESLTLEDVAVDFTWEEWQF

- Variants of: B1
- ASSAY PROTOCOL: protein stability index of a GFP-peptide fusion (GPS, HEK-293T) (PSI 1-6); higher = more stable;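 further: lentivirally expressed fusions sorted by FACS into six bins by GFP to DsRed ratio, PSI derived from sequencing read proportions per bin multiplied by bin number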
- MEASUREMENT CONDITIONS: c terminus: a fixed tail appended
Parameter threshold = 3. Response is TRUE when protein stability index meets or exceeds it, else FALSE.

Please indicate if the recorded protein stability index for E6A meets or exceeds 3.
FALSE

Does W19F have a reported protein stability index of at least 3?
TRUE

Entry K3L : is its protein stability index no less than 3?
FALSE

Please tell me: is the variant T9Q at or over 3 in terms of protein stability index?
TRUE

Does the reported protein stability index for E21T fall at or above the 3 mark?
FALSE

Answer whether protein stability index of A4I is greater than or equal to 3.
FALSE

Assess whether reported protein stability index for V13Q sits at 3 or higher.
TRUE

Please check the record D12L and state if its protein stability index is at or above 3.
TRUE

Is protein stability index at least 3? Consider A4F
FALSE

Could you please find out whether Q23A has protein stability index that meets 3 or exceeds it?
TRUE

Threshold query (protein stability index >= 3) on S7R
TRUE

Quick check: does L10K have protein stability index greater than or equal to 3?
TRUE

Would you say W19N shows protein stability index at minimum 3?
TRUE

hey, is protein stability index for this one >= 3? V13R
TRUE

hey, is protein stability index for this one >= 3? F17R
TRUE

In plain terms: is recorded protein stability index at least 3 for T9G ?
TRUE

Dear colleague, could you confirm whether K3N has protein stability index at or above 3?
TRUE

Hello, I need to know if A4M has measured protein stability index not below 3. Thanks!
FALSE

Hi, just wondering whether F17C shows protein stability index of 3 or higher.
TRUE

Could you verify whether the entry T2G shows protein stability index of no less than 3?
TRUE

Item F24C with protein stability index of 3 or above?
TRUE
